Origin of values: patent US20240368133A1

Experiment: Kinetic solubility
Assay type: physicochemical
Settings: citrate buffer, 25 °C, pH 3, aqueous buffer, kinetic from dmso stock; read-out: Citrate buffer solubility, pH 3.0
Readout: solubility at 2 h

Some solved cases for reference:
CC(C)Oc1ccc(-c2nn[nH]n2)c(N2CCN(Cc3nc4ccccc4n3C)CC2)c1
≥ 400 µM
CC(C)Cc1ccc(-c2nn[nH]n2)c(N2CCN(Cc3cccnn3)CC2)c1
≥ 400 µM
CCCCNC(=O)NS(=O)(=O)c1ccc(C)cc1N1CCN(Cc2nc3ccccc3n2C)CC1
≥ 400 µM
CCCCNC(=O)NS(=O)(=O)c1ccc(C(F)(F)F)cc1N1CCN(Cc2nc3ccccc3n2C)CC1
≥ 400 µM
CCCCOC(=O)NS(=O)(=O)c1ccc(C(F)(F)F)cc1N1CCN(Cc2nc3ccccc3n2C)CC1
≥ 400 µM

// input: 2 molecules below; output: solubility at 2 h for each
1. CCC1CN(c2cc(CC(C)C)cc(F)c2-c2nn[nH]n2)CCN1Cc1cccnn1 (stereo not shown)
2. CC(C)Cc1ccc(-c2nn[nH]n2)c(N2CCN(Cc3nc4ccccc4n3C)CC2)c1

Ans.
≥ 400 µM
≥ 400 µM
